# test.details: folding stability dG unfold from trypsin proteolysis; higher = more stable
Each item that follows carries a reported folding stability dG unfold.
Respond numerically; units are kcal/mol and should not be typed.

Consider the following illustrative entries.
SAGGSGIEAAILEAVEKGLNPVELTFRLPEDGKLVVLKVEVLDVLDGGAIVKVEMEVYDPENPKKISAGGSA [r2_420_TrMRF]	1.06
SAGGSAEIELPEGAKVEVTEVEVDGELYLRMKVVDEETGEVFVMEMRMRPDGEMEMEVKKIPKEELSAGGSA [r15_986_TrROS_Hall]	1.3

The sequence SAGGSAGGSKKKTVEEILKELKKKKNKIIKIKYKDGSTYYINIKTGKIIKLKNIKNVKIEILPSAGGSAGGS [r20_44_TrROS_Hall] showed folding stability dG unfold equal to 2.73

SAGGSAGGSAGGMMRIRIKIYNVETGEWKEIEIEVPESVKEITLEIELPEGWRIVEIEVESAGGSAGGSAGG [r7_687_TrROS_Hall] has a reported folding stability dG unfold of 5.39
